// provenance: PubChem BioAssay AID1259415

# assay.info: qHTS Assay for inhibitors of the human cytomegalovirus (HCMV); also: % is scaled to controls: 0 for no effect and ±100 for the full control effect
# assay.context: HFF cells, HCMV-luciferase reporter, 72 h; at 57.5 µM
Screen size: about 410,000 compounds; about 18,000 (4.4%) were called active. About 7% were inconclusive and are not listed. Rule as the data show it: active = activity change below about -60%; inconclusive = no clear call, values can overlap the other calls; inactive = above about -39%. This excerpt belongs to a sample that is enriched for actives.
Please state which outcome applies, choosing from 1 = active, 0 = inactive

Some solved entries appear below for comparison.
{"compound": "Cc1nc(N2CCOCC2)c2c(C)c(C(=O)Nc3ccc(C(F)(F)F)cc3)sc2n1", "class.label": 1}
{"compound": "COc1ccccc1CNC(=O)CCn1c(=O)c2ccccc2n(CC(=O)Nc2ccc(Br)cc2F)c1=O", "class.label": 0}
{"compound": "O=C(C1COc2ccccc2O1)N(Cc1cccnc1)c1nc2c(F)cc(F)cc2s1 (stereo unspecified)", "class.label": 0}
{"compound": "CN(C1CCS(=O)(=O)C1)S(=O)(=O)c1ccc2ccccc2c1 (stereo unspecified)", "class.label": 0}
{"compound": "CCCC(NCC(=O)Nc1ccccc1C(=O)NC1CC1)c1ccccc1 (stereo unspecified)", "class.label": 0}
{"compound": "Oc1ccc(-c2nc3ccc(Cl)cn3c2Nc2ccc3c(c2)OCO3)cc1", "class.label": 0}
{"compound": "CCOc1ccc(NC(=O)c2cc(S(=O)(=O)N3CCCC3)c[nH]2)cc1", "class.label": 0}
{"compound": "Cc1ccc(NC(=O)CN(C)C(=O)c2ccc(Cl)c(S(=O)(=O)NCc3ccco3)c2)cc1", "class.label": 0}

# outcome recorded in this test, key = O=C(NCC(c1cccnc1)N1CCc2ccccc21)c1cccc(C(F)(F)F)c1 (stereo unspecified)
0

# outcome recorded in this test, key = `Cn1c(NC(=O)c2ccccc2)nc2ccccc21`
1

# outcome recorded in this test, key = CC(=O)NC(CC(=O)Nc1ccc(S(=O)(=O)N2CCOCC2)cc1)c1ccccc1 (stereo unspecified)
0

# outcome recorded in this test, key = `CCCCCn1c(CCNC(=O)c2ccc(F)cc2)nc2ccccc21`
0

# outcome recorded in this test, key = `COc1ccc(C)cc1Nc1nc2ccccc2c2nnc(C)n12`
0

# outcome recorded in this test, key = `Fc1ccc(-c2nc(Nc3cccc(Cl)c3)nc3c2COc2ccccc2-3)cc1`
0

* * *

# assay.info: qHTS Assay for inhibitors of the human cytomegalovirus (HCMV); also: % is scaled to controls: 0 for no effect and ±100 for the full control effect
# assay.context: HFF cells, HCMV-luciferase reporter, 72 h; at 57.5 µM; stronger effect = lower value
The whole screen tested about 410,000 compounds, of which about 18,000 (4.4%) were called active. Not shown: some 7% with an inconclusive outcome. The full list was thinned out, with actives kept by preference.
activity change, negative = inhibition by entry:

Worked examples, 3 molecules total:
{"molecule": "Cc1cccc(N2CCN(C(=O)c3cccc(S(=O)(=O)N4CCc5ccccc5C4)c3)CC2C)c1 (stereo unspecified)", "measurement": "-62.2% (active)"}
{"molecule": "CNS(=O)(=O)c1ccc2c(c1)[nH]c(=S)n2C", "measurement": "-5.5% (inactive)"}
{"molecule": "COc1ccnc(Oc2ccccc2)n1", "measurement": "5% (inactive)"}

// query activity change, negative = inhibition value for entry `COc1cnc(-c2ccccn2)nc1Oc1ccc(C(C)(C)C)cc1`
-82.7% (active)

// query activity change, negative = inhibition value for entry `COc1ccnc(Oc2ccccc2)c1-c1ncn[nH]1`
-36.6% (inactive)

// query activity change, negative = inhibition value for entry CC(NC(=O)c1cccc(S(=O)(=O)N2CCc3ccccc3C2)c1)c1ccco1 (stereo unspecified)
-21.6% (inactive)

* * *

activity change, negative = inhibition by entry:
# assay.info: qHTS Assay for inhibitors of the human cytomegalovirus (HCMV); also: % is scaled to controls: 0 for no effect and ±100 for the full control effect
# assay.context: HFF cells, HCMV-luciferase reporter, 72 h; at 57.5 µM; stronger effect = lower value
# Experimental: NCGC Assay Overview: Infection with human cytomegalovirus (HCMV) continues to pose significant threats for pregnant women and immunocompromised hosts. […] This is a cell-based assay for HCMV inhibition in HFFs cells. […] At 72 h post infection cell lysates were collected and luciferase activity was determined using the Glomax-Multi + Detection System (Promega, Madison, WI). […]
Out of some 410,000 compounds screened, about 18,000 (4.4%) were called active. Inconclusive results (about 7%) are left out. The sample as a whole holds a higher share of actives than the screen did.
Note: unit % is implicit; provide only the numeric part.

{"compound": "COc1ccc(CC(=O)N2CC3ON=C(c4c(F)cccc4Cl)C3C2)cc1OC (stereo not drawn)", "readout.unit": "%", "measurement": -61.7}
{"compound": "CC(=O)/C(=N\\Nc1ccc(Cl)cc1Cl)Sc1cccc2cccnc12", "readout.unit": "%", "measurement": -103}
{"compound": "Cc1cc(C)cc(NC(=S)NCCc2c[nH]c3ccccc23)c1", "readout.unit": "%", "measurement": -73.6}

// query activity change, negative = inhibition value for entry `CC[C@@H](C)[C@H](NC(=O)CCc1c(C)c2cc3c4c(oc3c(C)c2oc1=O)CCCC4)C(=O)O`
-33.8

// query activity change, negative = inhibition value for entry `COc1ccc(-c2nc3ccccc3o2)cc1NC(=O)c1cc([N+](=O)[O-])ccc1N1CCOCC1`
17.1

* * *

# assay.info: qHTS Assay for inhibitors of the human cytomegalovirus (HCMV); also: % is scaled to controls: 0 for no effect and ±100 for the full control effect
# assay.context: HFF cells, HCMV-luciferase reporter, 72 h; at 57.5 µM; stronger effect = lower value
Out of some 410,000 compounds screened, about 18,000 (4.4%) were called active. Not shown: some 7% with an inconclusive outcome. Only a selection was taken, and actives are over-represented in it overall.
endpoint.name: activity change, negative = inhibition

{"compound": "O=C(O)c1ccc(Cn2c(SCc3ccc(F)cc3)nc3ccncc32)cc1", "activity change, negative = inhibition": "0.974% (inactive)"}
{"compound": "O=C(CSc1ncc(-c2ccccc2)[nH]1)Nc1ccc(F)cc1F", "activity change, negative = inhibition": "-18.3% (inactive)"}
{"compound": "COc1ccc(-n2c(=O)c3sc4ccccc4c3n(CC(=O)Nc3cccc(C)c3)c2=O)cc1", "activity change, negative = inhibition": "11.4% (inactive)"}
{"compound": "CCC(CC)C(=O)N1CCc2cc(OC)c(OC)cc2C1COc1ccc(F)cc1 (stereo not given)", "activity change, negative = inhibition": "-15.5% (inactive)"}
{"compound": "Cc1ccc(NC(=O)CSc2nnc3[nH]c(=O)cc(C)n23)cc1Cl", "activity change, negative = inhibition": "-38.5% (inactive)"}
{"compound": "COc1ccc(C2N=C(N)N=C(N)N2c2ccccc2)cc1OC (stereo not given)", "activity change, negative = inhibition": "14% (inactive)"}

// query activity change, negative = inhibition value for entry `Cc1ccc(Cn2c(=O)n(-c3ccc(C)cc3)c(=O)c3c2c2cc(C)ccc2n3C)cc1`
5.49% (inactive)

// query activity change, negative = inhibition value for entry CC(C)(C)c1ccc(C(=O)NCC(c2ccco2)S(=O)(=O)c2ccc(F)cc2)cc1 (stereo not given)
-16.6% (inactive)

// query activity change, negative = inhibition value for entry Cc1cccc(N=C2SC(C)CN2C(=O)CN2C(=O)NC3(CCCC3)C2=O)c1 (stereo not given)
0.641% (inactive)

// query activity change, negative = inhibition value for entry `O=C(COC(=O)c1cc(S(=O)(=O)N2CCOCC2)ccc1F)NC1CC1`
-20.2% (inactive)

* * *

# assay.info: qHTS Assay for inhibitors of the human cytomegalovirus (HCMV); also: % is scaled to controls: 0 for no effect and ±100 for the full control effect
# assay.context: HFF cells, HCMV-luciferase reporter, 72 h; at 57.5 µM; stronger effect = lower value
The campaign covered roughly 410,000 compounds. About 18,000 (4.4%) were called active. About 7% were inconclusive and are not listed. What follows is part of a selection rich in actives, with near analogues and random picks from the rest.
endpoint.name: activity change, negative = inhibition (%)
Note: unit % is implicit; provide only the numeric part.

{"compound": "Cc1ccc2nc(/C(C#N)=C\\c3ccc(OC(=O)c4cccs4)cc3)[nH]c2c1", "measurement": -67.5}
{"compound": "CC(O)(c1cccc(F)c1)c1nc(-c2ccc3c(c2)OCO3)cs1 (stereo unspecified)", "measurement": -11.8}
{"compound": "COC(=O)c1ccc(CSc2nnc(N)s2)o1", "measurement": -25.6}
{"compound": "CSc1ccc(Cl)c(C(=O)OCC(=O)N2CCNC2=O)c1", "measurement": -17}
{"compound": "COc1ccc(Sc2ccc(NC(=O)c3cccc(Cl)c3)cc2C#N)cc1", "measurement": -22.8}
{"compound": "COc1ccc(Nc2ncc(C(=O)Nc3cc(C)ccc3OC)c3ccccc23)cc1", "measurement": -108}
{"compound": "CN(C)CCCNC(=S)N1CCN(c2nc(-c3ccccc3)cs2)CC1", "measurement": -3.01}
{"compound": "Cc1cccc(Cn2c(CN3CCC(C(=O)NCc4ccccc4Cl)CC3)cc3ccccc32)c1", "measurement": -4.28}
{"compound": "CCOC(=O)c1c(NC(=O)c2cc(CC)on2)sc(C(C)=O)c1C", "measurement": 0.462}
{"compound": "CCOc1ccccc1Nc1nnc(SCC(=O)Nc2cc(C)on2)s1", "measurement": 45.8}

Alright, here's another compound for you.
// query activity change, negative = inhibition value for entry `COC(=O)c1cnc(Nc2cc(C)ccc2OC)c2ccccc12`
-31.5
